assay: Cytotoxicity against human HepG2(2.2.15) cells after 24 hrs by neutral red dye uptake assay; type: cell-based
measured_metric: CC50 at 24 h (µM)
The reply should contain only the number, in µM.

Query block: Return the recorded CC50 at 24 h value; entry: C=C1[C@H](CO)[C@@H](O)C[C@@H]1n1cnc2c(=O)[nH]c(N)nc21
Result block: 28

---

test system: Hepatitis B virus; experiment: Antiviral activity against lamivudine-resistant Hepatitis B virus harboring reverse transcriptase L180M/M204V double mutant infected in human HepG2(2.2.15) cells assessed as inhibition of virus replication treated daily for 9 days by quantitative blot hybridization method; format: functional, organism-based; conditions: HepG2 2.2.15, 216 h
Provide the reported EC50 of each item.
Give just the numeric value; nM need not be written.

Query block: Provide EC50 value for the following molecule: Nc1ncnc2c1ncn2CCOCP(=O)(O)O
Result block: 2100

Query block: Report EC50 for C=C1[C@@H](n2cnc3c(N)ncnc32)[C@@H](F)[C@H](O)[C@H]1CO
Result block: 2200
